The origin of these recorded values is patent US20090305281.

target: HIV-1 reverse transcriptase (HXB2, group M subtype B) (Human immunodeficiency virus 1, UniProt P04585 SEQ:1-560); test: inhibition; DDDP, K+ buffer; p136 states not significantly different from L1; settings: tags: expressed in E. coli; hairpin + G4, T16 connector
Assay endpoint: IC50 (nM)
Respond numerically; units are nM and should not be typed.

**Query** Requested read-out: IC50. Entry: L10 (ssDNA) DNA: CGCCTGATTAGCGATACTCAGGCGTTTTTTTTTTTTTTTTGGGTGGGTGGGTGGG
**Result** 120
